- System: AR mRNA
- experiment.notes: Dose-dependent antisense inhibition of human AR in HuVEC cells (electroporation, qRT-PCR RTS3559, IC50)
- Assay type: cell-based
- measurement.context: Table 31; 3000.0 nM, HuVEC, electroporation, approximately 16 hours
- Experimental: After a treatment period of approximately 16 hours, RNA was isolated from the cells and AR mRNA levels were measured by quantitative real-time PCR. Human AR primer probe set RTS3559 was used to measure mRNA levels. AR mRNA levels were adjusted according to total RNA content, as measured by RIBOGREEN®. […] After a treatment period of approximately 16 hours, RNA was isolated from the cells and AR mRNA levels were measured by quantitative real-time PCR. […]
Oligonucleotides are written 5' to 3', each unit as a sugar letter and its base; * is a phosphorothioate linkage, no mark a phosphodiester; rarer units and linkages stand in square brackets, end groups in braces. Plain capitals give the bases only. k = constrained ethyl (cEt); [5mC] = 5-methylcytosine; d = 2'-deoxy (DNA)
# percent inhibition of AR, 3000.0 nM per entry
Give the number; % is assumed, so skip it.

Query :: Identify measured percent inhibition of AR, 3000.0 nM associated with 583821 (k[5mC]*kA*kG*dA*dA*dA*dT*dG*dG*dT*d[5mC]*dG*dA*kA*kG*kT) [compound 583821]
Result :: 77

Query :: Identify measured percent inhibition of AR, 3000.0 nM associated with 583713 (antisense kA*kT*k[5mC]*d[5mC]*dT*dT*dG*dA*dG*d[5mC]*dT*dT*dG*kG*k[5mC]*kT) [compound 583713]
Result :: 74

Query :: Identify measured percent inhibition of AR, 3000.0 nM associated with 583818 (antisense kT*kG*kG*dT*d[5mC]*dG*dA*dA*dG*dT*dG*d[5mC]*d[5mC]*k[5mC]*k[5mC]*k[5mC]) [compound 583818]
Result :: 84

Query :: Identify measured percent inhibition of AR, 3000.0 nM associated with 583795 (antisense kT*kG*k[5mC]*dT*dG*dT*dT*dG*d[5mC]*dT*dG*dA*dA*kG*kG*kA) [compound 583795]
Result :: 90

Value source: patent USRE48461E1
